tested on: OVCAR-8 ovarian; assay: NCI-60 one-dose screen, 48 h; conditions: 10 µM unless noted
About 83,000 compounds went through this panel and 20% of them were active in at least one assay; those are over-represented in the sample as a whole. Calls of active or inactive are those of the source. The calls were made as follows: active = growth percent below 10; inactive = the rest.
Write down one outcome, taken from yes (1) (active), no (0) (inactive)

Study these solved cases before continuing.
Prompt line: Just curious, what result did CN(c1ccccc1)c1ccc2c(c1)OCCC21CC1Nc1cnccc1C(=O)O (centres undefined) get here?
Response line: no (0)

Prompt line: What is the recorded call for this compound in the test? COc1ccc2cc(-c3cc(OC)c(OC)c(OC)c3)c(=O)oc2c1
Response line: no (0)

Prompt line: Could you please tell me the result logged for CN(C)c1ccc(/C=C/C(=O)c2cccc(Nc3nc(Nc4ccccc4)nc(Nc4ccccc4)n3)c2)cc1 in this assay?
Response line: no (0)

Prompt line: How was CCCCN(CCCC)CC(C)(C)C(O)c1ccc(OC)c2ccccc12 (centres undefined) classified in this test?
Response line: no (0)

Prompt line: Record request — test call for COc1ccc(C2CC(c3cccc(OC)c3)=NN2C(=O)c2cc(OC)c(OC)c(OC)c2)cc1 (centres undefined)
Response line: no (0)

Next:
Prompt line: State the result this test recorded for O=C(c1ccccc1)c1c(/C=C/c2ccc(Cl)cc2)nc2ccccc2c1/C=C/c1cccs1 .
Response line: no (0)

Prompt line: Call for entry CCOc1ccccc1-c1cc(-c2cccs2)c(C#N)c(=O)[nH]1 :
Response line: no (0)

Prompt line: Lab log entry: O=S(=O)(NCCCNc1cc(-c2c(-c3cccc(O)c3)nc3sccn23)ccn1)c1cccc(Cl)c1 — outcome as called in the assay?
Response line: no (0)

* * *

tested on: HT29 colon; assay: NCI-60 one-dose screen, 48 h; conditions: 10 µM unless noted
Compounds without any hit were thinned out: in the full panel of roughly 83,000, 20% have a hit. Calls of active or inactive are those of the source. How the source made its calls: active means growth percent below 10; inactive means the rest.
Returns: one label drawn from YES for active, NO for inactive

Prompt line: Per the assay record, what outcome was assigned to COC(=O)[C@]12CC[C@@H](C)[C@H](C)[C@@H]1C1=CC[C@@H]3[C@@]4(C)C(C=O)=C[C@@](C)(COC(=O)c5ccco5)[C@@H]4C(=O)C[C@@]3(C)[C@]1(C)CC2 ?
Response line: NO

Query compound follows.
Prompt line: Check the results log: what was the call for O=C1Nc2ccccc2/C1=C/c1cn(C(=O)c2ccc(Cl)cc2)c2ccccc12 ?
Response line: NO

* * *

// values below are reported growth
system: MDA-MB-231 breast; assay: NCI-60 one-dose screen, 48 h (100 = growth as untreated, 0 = no growth, -100 = all killed); details: 10 µM unless noted
This is part of a sample that, as a whole, favours compounds with a hit. Of some 83,000 tested, about 20% had one in any assay.
Your answer is read as %, so omit the unit and give the number.

Prompt line: Supply recorded growth for CC/C=C/C/C=C/C/C=C/C/C=C/C/C=C/C/C=C/CCC(=O)Nc1ccn([C@@H]2O[C@H](CO)[C@@H](O)C2(F)F)c(=O)n1 here.
Response line: 54.9

Prompt line: Please list growth recorded for the compound C=CCOC1=CC(=O)c2ccccc2C1=O
Response line: 77.3

Prompt line: Give recorded growth. COc1cccc(C(=O)NCCNc2cc(-c3cn(-c4ccccc4)nc3-c3cccc(OC)c3)ccn2)c1
Response line: 62.1

Here is the next item to consider.
Prompt line: Entry CNC(=O)NCC1OC(n2cnc3c(NC(=O)Nc4ccccc4)ncnc32)C(O[Si](C)(C)C(C)(C)C)C1CC(=O)N(C)OC (centres undefined) needs its growth filled in; supply it.
Response line: 15.2
